Just for reference, patent US20070265189A1 is where these values come from.

- MEASURED ON: T1, Soluble IGF-1R (sIGF-1R), R&D Systems Cat. # 391-GR/CF (UniProt P08069 31-935, limits assumed)
- T1 construct: extracellular domain
- METHOD SUMMARY: phage ELISA
1 means recorded IGF-1R/IR comparison is 7 or above; 0 means it is below 7.

> print(dat)
                                     binder  qualitative.label
1  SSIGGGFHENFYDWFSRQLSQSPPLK [H2CA-4-F7-IGFR]                  0
2  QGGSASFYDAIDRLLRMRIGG [20E2A-4-F11-IGFR]                  1
3  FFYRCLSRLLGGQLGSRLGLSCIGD [20C-3-E4-IGFR]                  0

Does IGF-1R/IR comparison meet or surpass 7 for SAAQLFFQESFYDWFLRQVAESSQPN [H2CA-4-F11-IGFR] ?
0
